measurement-protocol: Spermicidal activity in human sperms assessed as motility measured within 30 secs by phase contrast microscopy
Assay type: functional, Sperm
Please provide measured MEC for the entries that follow.
State the answer as a number, implicitly in %.

Per the records, this compound ( `O=C(c1ccccc1)N1CCN(C(=S)SSC(=S)N2CCN(C(=O)c3ccccc3)CC2)CC1` ) has MEC equal to 0.5

Per the records, this compound ( `S=C(SCCN1CCCC1)N1CCN(C(=S)SSC(=S)N2CCN(C(=S)SCCN3CCCC3)CC2)CC1` ) has MEC equal to 0.002

Per the records, this compound ( `S=C(SSC(=S)N1CCOCC1)N1CCOCC1` ) has MEC equal to 0.1

Per the records, this compound ( `CCCCN1CCN(C(=S)SSC(=S)N2CCN(CCCC)CC2)CC1` ) has MEC equal to 0.001

Per the records, this compound ( `CCCCCCCCCCSC(=S)N1CCN(C(=S)SSC(=S)N2CCN(C(=S)SCCCCCCCCCC)CC2)CC1` ) has MEC equal to 1

Per the records, this compound ( `CCCCN1CCN(C(=S)SCSC(=S)N2CCN(CCCC)CC2)CC1` ) has MEC equal to 0.5

Per the records, this compound ( S=C(SSC(=S)N1CCCCC1)N1CCCCC1 [BIS(PIPERIDINYLTHIOCARBONYL)DISULFIDE] ) has MEC equal to 1

Per the records, this compound ( `C=CCN1CCN(C(=S)SCCCSC(=S)N2CCN(CC=C)CC2)CC1` ) has MEC equal to 0.5

====

System: Cryptococcus neoformans
measurement-protocol: Antifungal activity against Cryptococcus neoformans after 48 hrs by broth microdilution method
Format: functional
With a cut-off of 60 µM, any MIC strictly below it is called Condition met; any MIC meeting it or above is called Condition not met.

Query: Here's an entry: `CCCCN1CCN(C(=S)SSC(=S)N2CCN(CCCC)CC2)CC1` . Is its MIC below 60 µM?
Result: Condition not met

Query: Here's an entry: S=C(SSC(=S)N1CCCCC1)N1CCCCC1 [BIS(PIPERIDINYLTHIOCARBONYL)DISULFIDE] . Is its MIC below 60 µM?
Result: Condition met

Query: Here's an entry: `CCOC(=O)N1CCN(C(=S)SSC(=S)N2CCN(C(=O)OCC)CC2)CC1` . Is its MIC below 60 µM?
Result: Condition met

Query: Here's an entry: `S=C(SCCN1CCCC1)N1CCN(C(=S)SSC(=S)N2CCN(C(=S)SCCN3CCCC3)CC2)CC1` . Is its MIC below 60 µM?
Result: Condition not met

Query: Here's an entry: `COc1ccccc1N1CCN(C(=S)SSC(=S)N2CCN(c3ccccc3OC)CC2)CC1` . Is its MIC below 60 µM?
Result: Condition met

Query: Here's an entry: `CCCCCCCSC(=S)N1CCN(C(=S)SSC(=S)N2CCN(C(=S)SCCCCCCC)CC2)CC1` . Is its MIC below 60 µM?
Result: Condition not met

Query: Here's an entry: `S=C(SSC(=S)N1CCN(c2ncccn2)CC1)N1CCN(c2ncccn2)CC1` . Is its MIC below 60 µM?
Result: Condition not met

Query: Here's an entry: `CCCCCCCCCCCCCCCCN1CCN(C(=S)SSC(=S)N2CCN(CCCCCCCCCCCCCCCC)CC2)CC1` . Is its MIC below 60 µM?
Result: Condition not met

Query: Here's an entry: `CCCCCCCCN1CCN(C(=S)SSC(=S)N2CCN(CCCCCCCC)CC2)CC1` . Is its MIC below 60 µM?
Result: Condition not met
